target: full-length beta-Catenin (Uniprot ID P35222) (Homo sapiens); construct: 10 nM full-length beta-Catenin (Uniprot ID P35222); test: Fluorescence polarization IC50 (beta-catenin / 5FAM-TCF4 10-53 competition); format: binding; settings: read-out: FP EC50
Sequence (P35222 whole entry): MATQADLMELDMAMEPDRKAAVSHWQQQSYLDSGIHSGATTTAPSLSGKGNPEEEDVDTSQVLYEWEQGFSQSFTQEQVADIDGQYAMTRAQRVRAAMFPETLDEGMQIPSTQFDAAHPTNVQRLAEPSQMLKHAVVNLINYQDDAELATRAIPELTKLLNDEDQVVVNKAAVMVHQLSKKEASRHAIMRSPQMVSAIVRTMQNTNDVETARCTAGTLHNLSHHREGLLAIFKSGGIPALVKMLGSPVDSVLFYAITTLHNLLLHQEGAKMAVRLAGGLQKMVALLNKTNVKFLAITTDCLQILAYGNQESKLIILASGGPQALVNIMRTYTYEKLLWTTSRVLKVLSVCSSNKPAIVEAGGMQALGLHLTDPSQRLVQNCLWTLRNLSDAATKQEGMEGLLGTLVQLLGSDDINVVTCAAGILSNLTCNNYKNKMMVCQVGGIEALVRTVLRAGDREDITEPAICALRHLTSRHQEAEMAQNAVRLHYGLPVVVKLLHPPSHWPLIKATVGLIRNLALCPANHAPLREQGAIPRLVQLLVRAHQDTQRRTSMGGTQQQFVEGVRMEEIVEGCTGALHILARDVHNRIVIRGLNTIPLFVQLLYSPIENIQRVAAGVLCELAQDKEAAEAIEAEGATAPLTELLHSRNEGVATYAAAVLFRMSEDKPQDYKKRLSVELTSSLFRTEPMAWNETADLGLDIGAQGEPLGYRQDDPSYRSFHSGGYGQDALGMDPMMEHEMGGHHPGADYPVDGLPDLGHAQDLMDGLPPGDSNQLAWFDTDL
pIC50 overview
For clarity, pIC50 is expressed as the negative log10 of concentration in mol/L.

CC(=O)N1CCC[C@]12CC=CCCCC1(CCCC=CCCCCOC(=O)N3CC[C@@](C(=O)N[C@@H](Cc4ccsc4)C(=O)N[C@@H](Cc4csc5ccccc45)C(=O)N[C@@H](CCC(N)=O)C(N)=O)(C3)NC(=O)[C@H](CC(N)=O)NC(=O)[C@H](Cc3ccccc3)NC(=O)[C@H](C)NC(=O)[C@H](C)NC(=O)[C@H](CC(=O)O)NC(=O)[C@H](CC(=O)O)NC1=O)NC(=O)[C@H](CC(C)(C)C)NC(=O)[C@H](CC(=O)O)NC2=O (stereo partly drawn) [I-767] ... 7.92
CC(=O)N1CCC[C@]12CC=CCCCC1(CCCC=CCCCCCC[C@@](C)(C(=O)N[C@@H](Cc3ccccc3)C(=O)N[C@@H](Cc3csc4ccccc34)C(=O)N[C@@H](CCC(N)=O)C(N)=O)NC(=O)[C@H](CC(N)=O)NC(=O)[C@H](Cc3ccccc3)NC(=O)[C@H](C)NC(=O)[C@H](C)NC(=O)[C@H](CCC(=O)O)NC(=O)[C@H](CC(=O)O)NC1=O)NC(=O)[C@H](CC(C)C)NC(=O)[C@H](CC(=O)O)NC2=O (stereo partly drawn) [I-577] ... 7.89

Query compound follows.
Data request: What value of pIC50 has been recorded for this entry: CC(=O)N1CCC[C@]12CC=CCCCC1(CCCC=CCCCCCC[C@@](C)(C(=O)N[C@@H](Cc3ccccc3)C(=O)N[C@@H](Cc3csc4ccccc34)C(=O)N[C@@H](CCC(N)=O)C(N)=O)NC(=O)[C@H](CCC(N)=O)NC(=O)[C@H](Cc3ccccc3)NC(=O)[C@H](C)NC(=O)[C@H](C)NC(=O)[C@H](CCC(=O)O)NC(=O)[C@H](Cc3nn[nH]n3)NC1=O)NC(=O)[C@H](C)NC(=O)[C@H](CC(=O)O)NC2=O (stereo partly drawn) [I-414]
Data returned: 5.47
